# credit: patent US20170165365A1

biological target: T1, human HER3 antigen (Sino Biologicals) (human, UniProt P21860 20-643); assay: SPR (ProteOn XPR36), IgG captured by anti-human Fc, soluble monovalent antigen, 1:1 fit
T1 construct: Bought soluble antigen; also called human antigen
Measured parameter: koff (s⁻¹)
Answers are plain numbers, in s⁻¹.

Binder | Obs value
chimeric anti-HER3 antibody 5082 (antibody, V domains shown, light chain entry is full length) VH: EVQLKESGPGLVKPSQSLSLTCSVTGYSITSAYYWNWIRQFPGNKVEWMGYIGYDGRNTYNPSLKNRISITRDTSKNQFFLKLNSLTTEDTATYYCSREGDYGYSDYWGQGTTLTVS VL: DIVMTQATSSLSASLGDRVTVSCRASQDINNYLNWYQQKPDGTVKLLIYYTSRLQSGVPSRFSGSGSGIDYSLTISNLEQEDFVTYFCQQSETLPWTFGGGTKLELKR | 7.3e-05
chimeric anti-HER3 antibody 5038 (antibody, V domains shown, light chain entry is full length) VH: EVKLVESGPGLVKPSQSLSLTCSVTGYSITSGFYWTWIRQFPGNKLEWMGFISYDGSNNYNPSLKNRISITRDTSKNQFFLKLNSVTTEDTATYYCARGGGYYGNLFDYWGQGTTLTVS VL: DIVMTQTTSSLSASLGDRVTISCRPSQDISNYVNWFQQKPGGTVKLLIFHTSRLHSGVPSRFSGSGSGTDYSLTISTLEQEDIAIYFCQQGITLPWTFGGGTKLEIKR | 0.00048
humanized anti-HER3 antibody 11052 (antibody, V domains shown) VH: QVQLQESGPGLVKPSQTLSLTCTVSGYSITSAYYWNWIRQFPGKGVEWMGYIGYSGRNTYNPSLKNRVTISRDTSKNQFSLKLSSVTAADTAVYYCSREGDYGYSDYWGQGTLVTVSS VL: DIQMTQSPSSLSASVGDRVTVTCRASQDINNYLNWYQQKPGKAVKLLIYYTSRLQSGVPSRFSGSGSGTDYTLTISSLQPEDFATYFCQQSETLPWTFGQGTKLEIK | 0.00016

Look up koff: humanized anti-HER3 antibody 10810 (antibody, V domains shown) VH: QVQLQESGPGLVKPSQTLSLTCTVSGYSITSGFYWTWIRQHPGNGLEWIGFISYSGSNNYNPSLKNRVTISVDTSKNQFSLKLSSVTAADTATYYCARGGGYYGNLFDYWGQGTLVTVSS VL: DIQMTQSPSSLSASVGDRVTITCRPSQDISNYVNWFQQKPGKAPKLLIFHTSRLHSGVPSRFSGSGSGTDFTLTISSLQPEDIATYYCQQGITLPWTFGQGTKVEIK 0.0002
